Entries and their Kd values follow.
# measurement_target: hENPP1 (Homo sapiens)
# Sequence (P22413 98-925): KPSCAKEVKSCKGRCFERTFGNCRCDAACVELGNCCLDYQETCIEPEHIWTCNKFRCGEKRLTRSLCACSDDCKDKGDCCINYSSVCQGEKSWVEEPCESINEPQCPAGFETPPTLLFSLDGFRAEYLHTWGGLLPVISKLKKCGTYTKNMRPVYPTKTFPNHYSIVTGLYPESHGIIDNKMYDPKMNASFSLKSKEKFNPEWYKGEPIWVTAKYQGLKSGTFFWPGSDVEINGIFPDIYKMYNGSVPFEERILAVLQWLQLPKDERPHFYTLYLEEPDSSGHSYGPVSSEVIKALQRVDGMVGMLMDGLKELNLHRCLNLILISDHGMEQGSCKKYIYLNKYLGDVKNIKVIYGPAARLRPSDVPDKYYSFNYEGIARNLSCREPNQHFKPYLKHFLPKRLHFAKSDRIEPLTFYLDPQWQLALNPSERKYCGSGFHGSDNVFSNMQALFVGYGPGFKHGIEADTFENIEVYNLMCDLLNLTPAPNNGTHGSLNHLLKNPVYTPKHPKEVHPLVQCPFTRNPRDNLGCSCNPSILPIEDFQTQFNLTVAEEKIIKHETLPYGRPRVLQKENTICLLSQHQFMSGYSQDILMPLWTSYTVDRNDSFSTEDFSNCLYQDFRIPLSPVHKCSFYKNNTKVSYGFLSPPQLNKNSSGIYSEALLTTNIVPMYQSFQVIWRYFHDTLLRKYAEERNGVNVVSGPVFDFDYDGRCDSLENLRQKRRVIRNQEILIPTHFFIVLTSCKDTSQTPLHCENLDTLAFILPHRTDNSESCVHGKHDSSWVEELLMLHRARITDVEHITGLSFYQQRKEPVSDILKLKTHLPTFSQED
# assay_explanation: Surface plasmon resonance (SPR) binding to immobilised hENPP1 98–925, 1:1 steady-state affinity model
# Design: hENPP1^98–925 was coupled to the chip surface at 25°C; made in house; host or cells: 293-F cells (human), with 5 µM kifunensine
# assay_context: SPR
readout_kind: Kd

>>> test_result("Cc1cn([C@H]2C[C@H](O)[C@@H](COP(=O)(O)O)O2)c(=O)[nH]c1=O")
"> 1000 nM"
>>> test_result("Nc1ccn([C@@H]2O[C@H](COP(=O)(O)O)[C@@H](O)[C@H]2O)c(=O)n1")
"> 1000 nM"
>>> test_result("O=c1ccn([C@@H]2O[C@H](COP(=O)(O)O)[C@@H](O)[C@H]2O)c(=O)[nH]1")
"> 1000 nM"
>>> test_result("Nc1nc2c(ncn2[C@@H]2O[C@@H]3COP(=O)(O)O[C@H]4[C@@H](O)[C@H](n5cnc6c(N)ncnc65)O[C@@H]4COP(=O)(O)O[C@H]3[C@H]2O)c(=O)[nH]1")
"1300 nM"
